# Target System: cathepsin K (Homo sapiens)
# Construct: the active enzyme was obtained as the enzyme fraction by using detergent containing lysis buffer; made in house; host or cells: HEK293T (GenHunter Corporation), transient expression; detergent lysate used as enzyme fraction
# Sequence (P43235 115-329): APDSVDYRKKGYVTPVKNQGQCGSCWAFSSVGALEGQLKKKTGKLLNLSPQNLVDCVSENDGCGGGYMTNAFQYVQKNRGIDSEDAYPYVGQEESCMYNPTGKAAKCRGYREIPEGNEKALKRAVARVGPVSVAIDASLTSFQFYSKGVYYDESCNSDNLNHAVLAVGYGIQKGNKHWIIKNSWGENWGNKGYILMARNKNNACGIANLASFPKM
# Protocol Notes: Cathepsin K inhibitory activity (fluorescent substrate Z-Leu-Arg-MCA)
# Assay type: biochemical
# Protocol Conditions: enzyme expressed in HEK293T; 15 min preincubation, 30 min reaction at room temperature, pH 5.5; read-out: Activity Intensity (cathepsin K inhibitory activity, pIC50 class) (converted)
Endpoint Name: IC50

compound=CC[C@@H](CNc1ccc(-n2nccc2C(=O)O)cc1)NC(=O)[C@H](CC(C)C)N[C@@H](c1ccccc1)C(F)(F)F assay_result="31.6 to 10000 nM"
compound="CC[C@@H](CNc1ccc(OCC[S+](C)[O-])cc1OC)NC(=O)[C@H](CC(C)(C)F)N[C@@H](c1ccc(Br)cc1)C(F)(F)F (stereo partly shown)" assay_result="≤ 3.16 nM"
compound=COc1ccc([C@H](N[C@@H](CC(C)C)C(=O)N[C@@H](C)CNc2ccc(N3CCOCC3)cc2)C(F)(F)F)cn1 assay_result="≤ 3.16 nM"
compound=CC[C@@H](CNc1ccc(OCC(=O)O)cc1OC)NC(=O)[C@H](CC(C)C)N[C@@H](c1ccc(=O)[nH]c1)C(F)(F)F assay_result="3.16 to 31.6 nM"
compound=CC[C@@H](CNc1ccc2c(c1)OCO2)NC(=O)[C@H](CC(C)C)N[C@@H](c1ccccc1)C(F)(F)F assay_result="31.6 to 10000 nM"
compound=CC[C@@H](CNc1ccc(OCCO)cc1OC)NC(=O)[C@H](CC(C)(C)F)N[C@@H](c1ccccc1)C(F)(F)F assay_result="≤ 3.16 nM"
compound=COc1ccc(NC[C@H](CCS(C)(=O)=O)NC(=O)[C@H](CC(C)C)N[C@@H](c2ccccc2)C(F)(F)F)c(OC)c1 assay_result="3.16 to 31.6 nM"
compound=CC[C@@H](CNc1ccc(OC)cc1OC)NC(=O)[C@H](CC(C)C)N[C@@H](c1ccc(OC)cc1)C(F)(F)F assay_result="≤ 3.16 nM"
compound=CC[C@@H](CNc1ccc(N2C[C@@H](C)O[C@@H](C)C2)cc1)NC(=O)[C@H](CC(C)C)N[C@@H](c1ccccc1)C(F)(F)F assay_result="≤ 3.16 nM"
compound=CC(C)C[C@H](N[C@@H](c1cccnc1)C(F)(F)F)C(=O)N[C@@H](C)CNc1ccc(N2CCOCC2)cc1 assay_result="≤ 3.16 nM"
